Just for reference, patent US7264832B2 is where these values come from.

Biological target: COX-2 enzyme (human PGHS-2) isolated from insect cells (Homo sapiens, UniProt P35354)
Sequence (P35354 18-604): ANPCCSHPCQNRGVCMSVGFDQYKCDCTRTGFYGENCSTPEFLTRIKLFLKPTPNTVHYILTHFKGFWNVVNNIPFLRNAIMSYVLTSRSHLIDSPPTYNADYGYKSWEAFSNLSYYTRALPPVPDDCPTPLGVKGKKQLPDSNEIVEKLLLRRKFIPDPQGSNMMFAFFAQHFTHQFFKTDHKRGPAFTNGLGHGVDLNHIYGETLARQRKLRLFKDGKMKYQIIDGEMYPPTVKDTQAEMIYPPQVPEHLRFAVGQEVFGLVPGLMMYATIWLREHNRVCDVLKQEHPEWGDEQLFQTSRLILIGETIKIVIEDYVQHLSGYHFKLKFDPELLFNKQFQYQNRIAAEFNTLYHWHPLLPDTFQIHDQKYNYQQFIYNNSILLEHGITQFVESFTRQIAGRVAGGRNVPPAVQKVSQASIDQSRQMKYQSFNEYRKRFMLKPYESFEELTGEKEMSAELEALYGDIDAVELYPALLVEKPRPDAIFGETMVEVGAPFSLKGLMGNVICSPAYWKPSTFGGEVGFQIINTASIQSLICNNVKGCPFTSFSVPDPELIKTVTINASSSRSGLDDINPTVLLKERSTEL
Test: Cyclooxygenase enzyme inhibitory assay, COX-2 (initial rate of O2 uptake)
Conditions: 100 μg/ml
OBSERVABLE: COX-2 enzyme inhibition (%)
// return numeric value only (unit: %, not printed)

>  <MOLECULE>
CC1=C(CO)C(=O)O[C@@H]([C@@H](C)[C@H]2CC[C@H]3[C@@H]4CC=C5C[C@@H](O[C@@H]6O[C@H](CO)[C@@H](O)[C@H](O)[C@H]6O)C[C@H](O)[C@]5(C)[C@H]4CC[C@]23C)C1

>  <COX-2 enzyme inhibition (%)>
14

$$$$

-- ask Which COX-2 enzyme inhibition value is on record for `CC1=C(CO)C(=O)O[C@@H]([C@@H](C)[C@H]2CC[C@H]3[C@@H]4C[C@H]5O[C@]56[C@@H](O)C=CC(=O)[C@]6(C)[C@H]4CC[C@]23C)C1` ?
-- reply 39

-- ask Field request: COX-2 enzyme inhibition | item: CC1=C(CO)C(=O)OC(C(C)C2CCC3C4CC5OC56C(O)CCC(=O)C6(C)C4CCC23C)C1 (stereo not drawn) [Compound 7, 2,3-dihydrowithaferin A]
-- reply 27

###

Test: Antioxidant activity: inhibition of Fe2+-initiated lipid peroxidation in large unilamellar vesicles
Conditions: 100 ppm (100 μg/ml), at 20 min, relative to DMSO control
OBSERVABLE: inhibition of lipid peroxidation (%)
Note: unit % is implicit; provide only the numeric part.

Some solved cases for reference:
>  <COMPOUND>
CC1=C(CO)C(=O)OC(C(C)C2CCC3C4CC5OC56C(O)CCC(=O)C6(C)C4CCC23C)C1 (stereo not drawn) [Compound 7, 2,3-dihydrowithaferin A]

>  <OUTPUT UNIT>
%

>  <NUMERIC VALUE>
5

$$$$
>  <COMPOUND>
CC1=C(CO[C@@H]2O[C@H](CO)[C@@H](O)[C@H](O)[C@H]2O)C(=O)O[C@@H]([C@@H](C)[C@H]2CC[C@H]3[C@@H]4C[C@H]5O[C@]56[C@@H](O)C=CC(=O)[C@]6(C)[C@H]4CC[C@]23C)C1 [Compound 10, sitoindoside IX]

>  <OUTPUT UNIT>
%

>  <NUMERIC VALUE>
44

$$$$

Now consider a different compound.
-- ask Fill blank: measured inhibition of lipid peroxidation of the compound `CC1=C(CO)C(=O)O[C@@H]([C@@H](C)[C@H]2CC[C@H]3[C@@H]4CC=C5C[C@@H](O[C@@H]6O[C@H](CO)[C@@H](O)[C@H](O)[C@H]6O)C[C@H](O)[C@]5(C)[C@H]4CC[C@]23C)C1` is ____.
-- reply 55

###

Assay: Antioxidant activity: inhibition of Fe2+-initiated lipid peroxidation in large unilamellar vesicles
Conditions: 100 ppm (100 μg/ml), at 20 min, relative to DMSO control
Experimental: The ability of withanolides to inhibit lipid peroxidation in a model system was used to determine whether they could act as antioxidants. The assay was conducted by using large unilamellar vesicles and peroxidation was initiated by adding Fe^2+. Antioxidant activity. […] The percentage of inhibition was calculated with respect to DMSO control. All compounds were tested at 100 μg/ml and the positive controls BHA, BHT and TBHQ were tested at 10 μM.

>  <COMPOUND>
CC1=C(CO)C(=O)O[C@@H]([C@@H](C)[C@H]2CC[C@H]3[C@@H]4C[C@H]5O[C@]56[C@@H](O)[C@@H](O)CC(=O)[C@]6(C)[C@H]4CC[C@]23C)C1 [Compound 8, viscosalactone B]

>  <inhibition of lipid peroxidation>
did not show activity

$$$$
>  <COMPOUND>
CC1=C(CO)C(=O)O[C@@H]([C@@H](C)[C@H]2CC[C@H]3[C@@H]4C[C@H]5O[C@]56[C@@H](O)C=CC(=O)[C@]6(C)[C@H]4CC[C@]23C)C1 [Compound 6, withaferin A]

>  <inhibition of lipid peroxidation>
did not show activity

$$$$
>  <COMPOUND>
CC1=C(CO)C(=O)O[C@@H]([C@@H](C)[C@H]2CC[C@H]3[C@@H]4CC=C5C[C@@H](O[C@@H]6O[C@H](CO[C@@H]7O[C@H](CO)[C@@H](O)[C@H](O)[C@H]7O)[C@@H](O)[C@H](O)[C@H]6O)C[C@H](O)[C@]5(C)[C@H]4CC[C@]23C)C1 [Compound 12, withanolide IV]

>  <inhibition of lipid peroxidation>
did not show activity

$$$$
